Molecular target: human IL-6 (human, UniProt P05231 30-212)
Sequence (P05231 30-212 limits assumed): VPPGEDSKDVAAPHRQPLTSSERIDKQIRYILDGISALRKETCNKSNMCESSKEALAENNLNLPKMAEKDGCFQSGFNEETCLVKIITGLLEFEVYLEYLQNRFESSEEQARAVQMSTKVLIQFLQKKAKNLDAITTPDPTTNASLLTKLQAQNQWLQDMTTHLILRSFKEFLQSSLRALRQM
Assay: SPR (Biacore), supernatant antibody on Protein A chip, IL-6 flowed, 37 C
Items are presented alongside their recorded kon.

binder	kon, M⁻¹ s⁻¹
anti-IL-6 antibody, heavy chain S35V, G66D / light chain M32L, M50D, N52S, M88Q (antibody, human IgG1, V domains shown, Human IgG1) VH: EVQLVESGGGLVQPGGSLRLSCAASGFTFSPFAMVWVRQAPGKGLEWVAKISPGGSWTYYSDTVTDRFTFSLDTSKSTAYLQMNSLRAEDTAVYYCARQLWGYYALDIWGQGTLVTVSS VL: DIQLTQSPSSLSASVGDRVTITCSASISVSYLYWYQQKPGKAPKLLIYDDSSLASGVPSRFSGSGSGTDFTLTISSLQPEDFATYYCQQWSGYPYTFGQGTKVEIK	1.03e+06
anti-IL-6 antibody, heavy chain T63Q, G66D / light chain M32L, M50D, N52S, M88Q (antibody, human IgG1, V domains shown, Human IgG1) VH: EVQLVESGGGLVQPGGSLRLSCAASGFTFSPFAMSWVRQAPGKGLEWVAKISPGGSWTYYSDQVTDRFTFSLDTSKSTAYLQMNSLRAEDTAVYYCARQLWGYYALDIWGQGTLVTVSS VL: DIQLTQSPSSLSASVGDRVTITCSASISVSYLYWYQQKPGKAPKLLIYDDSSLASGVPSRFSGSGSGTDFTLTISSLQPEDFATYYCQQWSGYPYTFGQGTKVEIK	1.78e+06
anti-IL-6 antibody, heavy chain I51K, G66D / light chain M32L, M50D, N52S, M88Q (antibody, human IgG1, V domains shown, Human IgG1) VH: EVQLVESGGGLVQPGGSLRLSCAASGFTFSPFAMSWVRQAPGKGLEWVAKKSPGGSWTYYSDTVTDRFTFSLDTSKSTAYLQMNSLRAEDTAVYYCARQLWGYYALDIWGQGTLVTVSS VL: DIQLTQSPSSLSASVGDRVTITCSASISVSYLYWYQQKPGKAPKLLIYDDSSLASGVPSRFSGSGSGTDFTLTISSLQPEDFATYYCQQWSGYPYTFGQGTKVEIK	1.72e+06
anti-IL-6 antibody, heavy chain T65V, G66D / light chain M32L, M50D, N52S, M88Q (antibody, human IgG1, V domains shown, Human IgG1) VH: EVQLVESGGGLVQPGGSLRLSCAASGFTFSPFAMSWVRQAPGKGLEWVAKISPGGSWTYYSDTVVDRFTFSLDTSKSTAYLQMNSLRAEDTAVYYCARQLWGYYALDIWGQGTLVTVSS VL: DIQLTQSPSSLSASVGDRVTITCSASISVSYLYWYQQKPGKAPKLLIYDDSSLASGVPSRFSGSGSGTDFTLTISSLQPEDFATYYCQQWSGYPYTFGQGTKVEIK	1.96e+06
anti-IL-6 antibody, heavy chain I51E, G66D / light chain M32L, M50D, N52S, M88Q (antibody, human IgG1, V domains shown, Human IgG1) VH: EVQLVESGGGLVQPGGSLRLSCAASGFTFSPFAMSWVRQAPGKGLEWVAKESPGGSWTYYSDTVTDRFTFSLDTSKSTAYLQMNSLRAEDTAVYYCARQLWGYYALDIWGQGTLVTVSS VL: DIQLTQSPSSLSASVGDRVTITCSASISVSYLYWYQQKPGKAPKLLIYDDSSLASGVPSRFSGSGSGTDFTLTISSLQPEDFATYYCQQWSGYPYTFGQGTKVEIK	914000
anti-IL-6 antibody, heavy chain T65A, G66D / light chain M32L, M50D, N52S, M88Q (antibody, human IgG1, V domains shown, Human IgG1) VH: EVQLVESGGGLVQPGGSLRLSCAASGFTFSPFAMSWVRQAPGKGLEWVAKISPGGSWTYYSDTVADRFTFSLDTSKSTAYLQMNSLRAEDTAVYYCARQLWGYYALDIWGQGTLVTVSS VL: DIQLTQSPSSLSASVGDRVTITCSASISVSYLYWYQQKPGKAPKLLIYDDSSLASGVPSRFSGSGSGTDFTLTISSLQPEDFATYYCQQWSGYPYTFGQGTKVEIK	2.27e+06
anti-IL-6 antibody, heavy chain S35T, G66D / light chain M32L, M50D, N52S, M88Q (antibody, human IgG1, V domains shown, Human IgG1) VH: EVQLVESGGGLVQPGGSLRLSCAASGFTFSPFAMTWVRQAPGKGLEWVAKISPGGSWTYYSDTVTDRFTFSLDTSKSTAYLQMNSLRAEDTAVYYCARQLWGYYALDIWGQGTLVTVSS VL: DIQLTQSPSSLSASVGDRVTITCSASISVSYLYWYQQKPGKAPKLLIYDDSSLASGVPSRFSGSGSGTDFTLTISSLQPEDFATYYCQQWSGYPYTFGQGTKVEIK	1.43e+06
